Experiment: In vitro inhibition of [3H]-gabapentin binding to partially purified rat neocortex synaptic plasma membranes
Assay type: cell membranes, Membrane
readout: pIC50
Remember the convention: pIC50 equals -log10 of concentration in molar.

Inquiry: Need pIC50 of NCC1(CC(=O)O)CCCCC1 , thanks.
Reply text: 7.10

Inquiry: Need pIC50 of CC(C)C[C@@H](CN)CC(=O)O , thanks.
Reply text: 6.21

Inquiry: Need pIC50 of CC(C)C[C@H](CN)CC(=O)O , thanks.
Reply text: 7.43

Inquiry: Need pIC50 of CC(C)CC(CN)CC(=O)O (racemic) , thanks.
Reply text: 7.08
